B1: glmS ribozyme (parent)
chain: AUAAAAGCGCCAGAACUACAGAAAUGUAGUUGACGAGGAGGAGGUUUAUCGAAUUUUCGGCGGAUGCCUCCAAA

variants of: B1; test: self-cleavage kobs at 640 uM GlcN6P; higher = faster cleavage; RNA array; details: with glucosamine-6-phosphate
This sample holds only a part of the variants without activity.
Assign Satisfied to entries whose self-cleavage kobs at 640 uM GlcN6P meets or exceeds 0.0001 s⁻¹; assign Not satisfied to the rest.

A selection of reference data follows.
A15C G29U: Satisfied
U30C G37U G44C C58U C67U: Not satisfied
A12C G40A: Satisfied
A15U A52U: Not satisfied
A15C C16G: Satisfied
G63U C67U: Not satisfied

Reported self-cleavage kobs at 640 uM GlcN6P reaches at least 0.0001 s⁻¹ for C8A C10A G38A C50G ? Not satisfied

Reported self-cleavage kobs at 640 uM GlcN6P reaches at least 0.0001 s⁻¹ for A12U G29A ? Satisfied

Reported self-cleavage kobs at 640 uM GlcN6P reaches at least 0.0001 s⁻¹ for U46A C58G ? Not satisfied

Reported self-cleavage kobs at 640 uM GlcN6P reaches at least 0.0001 s⁻¹ for G29A C67G ? Not satisfied

Reference source for all entries: the supplement of paper PMC7125110
